Test system: anesthetized dog
test: Effect on electrocardiogram of anesthetized dog
Type: in vivo
stated conditions: Individual 1 (male), 0.6 mg/kg/10 min i.v., 45 min after start of administration
Method: A male beagle and a female beagle of 11 months of age were used in the test. […] In measurement of the electrocardiogram, bipolar extremity leads (I, II and III) and augmented unipolar extremity leads (aVR, aVL and aVF) were recorded and QT interval determined by using an electrocardiogram analyzer for animals (α6000AX-D, Fukuda M-E Kogyo Co., Ltd.), as needle electrodes were placed on four extremities. […]
measure: QT interval
Answer with the figure and its unit, nothing else.

**Q:** # input molecule: COc1cc(CN[C@@H](C)[C@H](O)c2ccc(O)c(NS(C)(=O)=O)c2)cc(OC)c1 ; wanted: its QT interval
**A:** 220 ms

---

Tested on: anesthetized dog
test: Effect on electrocardiogram of anesthetized dog
Format: in vivo
stated conditions: Individual 1 (male), 6 mg/kg/10 min i.v., 60 min after start of administration; Fridericia
measure: QTc (ms)
The reply should be a number in ms, with the unit left off.

**Q:** Notebook: pull reported QTc for anesthetized dog, entry COc1cc(CN[C@@H](C)[C@H](O)c2ccc(O)c(NS(C)(=O)=O)c2)cc(OC)c1
**A:** 305

---

Test system: anesthetized dog
test: Effect on electrocardiogram of anesthetized dog
Type: in vivo
stated conditions: Individual 2 (female), 2 mg/kg/10 min i.v., 0 min (immediately before start of administration)
measure: QT interval (ms)
The reply should be a number in ms, with the unit left off.

**Q:** # input molecule: COc1cc(CN[C@@H](C)[C@H](O)c2ccc(O)c(NS(C)(=O)=O)c2)cc(OC)c1 ; wanted: its QT interval
**A:** 215

---

Test system: anesthetized dog
test: Effect on electrocardiogram of anesthetized dog
Assay type: in vivo
stated conditions: Individual 2 (female), 0.6 mg/kg/10 min i.v., 30 min after start of administration; Fridericia
measure: QTc (ms)
The reply should be a number in ms, with the unit left off.

**Q:** # input molecule: COc1cc(CN[C@@H](C)[C@H](O)c2ccc(O)c(NS(C)(=O)=O)c2)cc(OC)c1 [Example 1] ; wanted: its QTc
**A:** 297

---

System: anesthetized dog
test: Effect on electrocardiogram of anesthetized dog
Type: in vivo
stated conditions: Individual 1 (male), 6 mg/kg/10 min i.v., 30 min after start of administration; Fridericia
measure: QTc (ms)
The reply should be a number in ms, with the unit left off.

**Q:** # input compound: COc1cc(CN[C@@H](C)[C@H](O)c2ccc(O)c(NS(C)(=O)=O)c2)cc(OC)c1 [Example 1] ; wanted: its QTc
**A:** 291

---

System: anesthetized dog
test: Effect on electrocardiogram of anesthetized dog
Format: in vivo
stated conditions: Individual 1 (male), 2 mg/kg/10 min i.v., 15 min after start of administration; Fridericia
measure: QTc (ms)
The reply should be a number in ms, with the unit left off.

**Q:** # input molecule: COc1cc(CN[C@@H](C)[C@H](O)c2ccc(O)c(NS(C)(=O)=O)c2)cc(OC)c1 [Example 1] ; wanted: its QTc
**A:** 294

---

System: anesthetized dog
test: Effect on electrocardiogram of anesthetized dog
Assay type: in vivo
stated conditions: Individual 1 (male), 6 mg/kg/10 min i.v., 0 min (immediately before start of administration)
measure: QT interval (ms)
The reply should be a number in ms, with the unit left off.

**Q:** # input compound: COc1cc(CN[C@@H](C)[C@H](O)c2ccc(O)c(NS(C)(=O)=O)c2)cc(OC)c1 ; wanted: its QT interval
**A:** 220

---

System: anesthetized dog
test: Effect on electrocardiogram of anesthetized dog
Format: in vivo
stated conditions: Individual 2 (female), 0.6 mg/kg/10 min i.v., 0 min (immediately before start of administration); Fridericia
measure: QTc (ms)
The reply should be a number in ms, with the unit left off.

**Q:** # input molecule: COc1cc(CN[C@@H](C)[C@H](O)c2ccc(O)c(NS(C)(=O)=O)c2)cc(OC)c1 ; wanted: its QTc
**A:** 293

---

Test system: anesthetized dog
test: Effect on electrocardiogram of anesthetized dog
Type: in vivo
stated conditions: Individual 2 (female), 0.6 mg/kg/10 min i.v., 0 min (immediately before start of administration)
measure: QT interval (ms)
The reply should be a number in ms, with the unit left off.

**Q:** # input compound: COc1cc(CN[C@@H](C)[C@H](O)c2ccc(O)c(NS(C)(=O)=O)c2)cc(OC)c1 ; wanted: its QT interval
**A:** 240

---

System: anesthetized dog
test: Effect on electrocardiogram of anesthetized dog
Format: in vivo
stated conditions: Individual 2 (female), 6 mg/kg/10 min i.v., 30 min after start of administration; Fridericia
measure: QTc (ms)
The reply should be a number in ms, with the unit left off.

**Q:** # input molecule: COc1cc(CN[C@@H](C)[C@H](O)c2ccc(O)c(NS(C)(=O)=O)c2)cc(OC)c1 ; wanted: its QTc
**A:** 289

---

Tested on: anesthetized dog
test: Effect on electrocardiogram of anesthetized dog
Assay type: in vivo
stated conditions: Individual 1 (male), 0.6 mg/kg/10 min i.v., 5 min after start of administration; Fridericia
measure: QTc

**Q:** # input compound: COc1cc(CN[C@@H](C)[C@H](O)c2ccc(O)c(NS(C)(=O)=O)c2)cc(OC)c1 ; wanted: its QTc
**A:** 299 ms

---

System: anesthetized dog
test: Effect on electrocardiogram of anesthetized dog
Type: in vivo
stated conditions: Individual 2 (female), 6 mg/kg/10 min i.v., 45 min after start of administration
measure: QT interval (ms)
The reply should be a number in ms, with the unit left off.

**Q:** # input compound: COc1cc(CN[C@@H](C)[C@H](O)c2ccc(O)c(NS(C)(=O)=O)c2)cc(OC)c1 ; wanted: its QT interval
**A:** 226
